Quick reference for Kd among some binders
target_entity: CAIX (UniProt Q16790 38-414)
# unit: nM | format: bare number

- G6 (antibody, V domains shown) VH: QVQLVQSGGGLVQPGGSLRLSCAASEFTFGTYAMTWVRQAPGKGLEWVSAVSGSGGSTYYADSVKGRFTISRDNSRNTLYLQMNSLRADDTAVYYCARGPVLRYGFDIWGQGTMVIVSS VL: QSVLTQPPSVSGAPGQRITISCTGSRSNIGADYDVHWYQQLPGTAPKLLIYANNNRPSGVPGRFSASKSGTSASLAISGLQAEDEADYYCQSYDSSLRAWVFGGGTKLAVLG: 25.9
- G40 (antibody, V domains shown) VH: QVQLVQSGGGLVQPGGSLRLSCAASGFTFSSYAMSWVRQAPGKGLEWVSAISGSGGSTYYADSVKGRFTISRDNSKNTLYLQMNSLRAEDTAVYYCATYGDYGSLDYWGQGTLVTVSS VL: QSVLTQPPSVSGAPGQRVTISCTGSSSNIGAGYDVHWYQQLPGTAPKLLIYANNNRPSGVPDRFSGSKSGTSASLAITGLQAEDEADYYCQSYDSSLRAWVFGGGTKLAVLG: 21.8

Here is another binder to look at.
Q: Recorded Kd of G45 (antibody, V domains shown) VH: QVQLVQSGGGLVRPGGSLRLSCAASGFPFSSYAMSWVRQAPGKGLEWVSAISANGGTTYYADSVKGRFTISRDNSKNTLYLQMNSLRAEDTAVYYCANNGNYRGAFDIWGQGTTVTVSS VL: QSVLTQPPSVSGAPGQRITISCTGSSSNIGAGYDVHWYQQVPGKAPKVVIYGNNNRPSGVPDRFSGSKSGASASLAITGLQTEDEADYYCQSYDKSLTWVFGGGTKVTVLG , please.
Result: 12.5
